- TARGET OR TEST SYSTEM: T1, AFP158/HLA-A*02:01 complex (human)
- T1 construct: flowed over the chip in SPR; also called AFP158 pro
- ASSAY TEXT: SPR, scFv captured, pMHC in flow;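 note: complex injected at several concentrations over crude scFv, association then running-buffer dissociation, KD estimated from kinetic on- and off-rate constants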

{"BINDER": "LH98M (scFv, AS170036 VL1VH1 scFv mutein) scFv: QSALTQPRSVSGSPGQSVTISCAGTSSDVGSENYVSWYQQHPGKAPKLMIYQVNKRASGVPDRFSGSKSGNTASLTISGLQAEDEADYYCASYRSSDMNIVFGGGTKLTVLGGGGSGGGGSGGGGSEVQLVESGGGLVQPGGSLRLSCAASGFTFSSYAMSWVRQAPGKGLEWVSTINSGTGSPYYADSVKGRFTISRDNSKNTLYLQMNSLRAEDTAVYYCAKNFFDGSWFLGPPAMDYWGQGTLVTVSSHHHHHH", "Kd": "140 nM"}
{"BINDER": "LY34T (scFv, AS170036 VL1VH1 scFv mutein) scFv: QSALTQPRSVSGSPGQSVTISCAGTSSDVGSENTVSWYQQHPGKAPKLMIYQVNKRASGVPDRFSGSKSGNTASLTISGLQAEDEADYYCASYRSSDHNIVFGGGTKLTVLGGGGSGGGGSGGGGSEVQLVESGGGLVQPGGSLRLSCAASGFTFSSYAMSWVRQAPGKGLEWVSTINSGTGSPYYADSVKGRFTISRDNSKNTLYLQMNSLRAEDTAVYYCAKNFFDGSWFLGPPAMDYWGQGTLVTVSSHHHHHH", "Kd": "2200 nM"}
{"BINDER": "LD97P (scFv, AS170036 VL1VH1 scFv mutein) scFv: QSALTQPRSVSGSPGQSVTISCAGTSSDVGSENYVSWYQQHPGKAPKLMIYQVNKRASGVPDRFSGSKSGNTASLTISGLQAEDEADYYCASYRSSPHNIVFGGGTKLTVLGGGGSGGGGSGGGGSEVQLVESGGGLVQPGGSLRLSCAASGFTFSSYAMSWVRQAPGKGLEWVSTINSGTGSPYYADSVKGRFTISRDNSKNTLYLQMNSLRAEDTAVYYCAKNFFDGSWFLGPPAMDYWGQGTLVTVSSHHHHHH", "Kd": "790 nM"}
{"BINDER": "LY34A (scFv, AS170036 VL1VH1 scFv mutein) scFv: QSALTQPRSVSGSPGQSVTISCAGTSSDVGSENAVSWYQQHPGKAPKLMIYQVNKRASGVPDRFSGSKSGNTASLTISGLQAEDEADYYCASYRSSDHNIVFGGGTKLTVLGGGGSGGGGSGGGGSEVQLVESGGGLVQPGGSLRLSCAASGFTFSSYAMSWVRQAPGKGLEWVSTINSGTGSPYYADSVKGRFTISRDNSKNTLYLQMNSLRAEDTAVYYCAKNFFDGSWFLGPPAMDYWGQGTLVTVSSHHHHHH", "Kd": "1700 nM"}
{"BINDER": "LH98L (scFv, AS170036 VL1VH1 scFv mutein) scFv: QSALTQPRSVSGSPGQSVTISCAGTSSDVGSENYVSWYQQHPGKAPKLMIYQVNKRASGVPDRFSGSKSGNTASLTISGLQAEDEADYYCASYRSSDLNIVFGGGTKLTVLGGGGSGGGGSGGGGSEVQLVESGGGLVQPGGSLRLSCAASGFTFSSYAMSWVRQAPGKGLEWVSTINSGTGSPYYADSVKGRFTISRDNSKNTLYLQMNSLRAEDTAVYYCAKNFFDGSWFLGPPAMDYWGQGTLVTVSSHHHHHH", "Kd": "200 nM"}
